# target entity: UniProt:P97287
# Sequence (P97287 whole entry, the tested form may be a part): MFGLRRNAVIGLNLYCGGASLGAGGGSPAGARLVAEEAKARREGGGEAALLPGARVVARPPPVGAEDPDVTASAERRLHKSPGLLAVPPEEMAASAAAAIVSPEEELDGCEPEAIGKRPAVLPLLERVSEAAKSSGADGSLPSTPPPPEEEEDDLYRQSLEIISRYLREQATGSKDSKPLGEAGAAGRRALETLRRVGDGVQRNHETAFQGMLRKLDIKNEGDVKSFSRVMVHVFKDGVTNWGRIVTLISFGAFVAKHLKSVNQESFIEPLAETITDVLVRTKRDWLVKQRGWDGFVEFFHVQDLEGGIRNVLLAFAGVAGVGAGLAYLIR
# assay explanation: Multifragment KTGS screen against Mcl-1 (5 TA x 38 SZ per well), LC-MS/MS
# details: multifragment KTGS, 190 combinations per well, 10 μM Mcl-1, 20 μM each fragment, pH 7.4, 37 °C, 10 h; peak area with protein / without protein
Recorded Amplification coefficient 5TA x 38SZ split into classes class 0 (below 8), class 1 (8 to below 10), class 2 (10 or more)

CCOc1ccc(-c2ccc3c(c2)c(C(=O)NS(=O)(=O)c2cccc4c(N(C)C)cccc24)cn3C)cc1F :: class 0
O=C(NS(=O)(=O)c1ccc(-c2ccc(Oc3ccccc3)cc2)cc1)c1cccc2ccccc12 :: class 2
O=C(NS(=O)(=O)c1ccc(CN(CCSc2ccccc2)Cc2c(F)cccc2Cl)cc1)c1ccc(CCc2ccccn2)cc1 :: class 0
COc1cc(OC)cc(C(=O)NS(=O)(=O)c2ccc(CN(CCSc3ccccc3)Cc3c(F)cccc3Cl)cc2)c1 :: class 1
NS(=O)(=O)c1ccc(CN(CCSc2ccccc2)Cc2ccc(S(=O)(=O)NC(=O)CC3Sc4ccccc4NC3=O)cc2)cc1 (centres unmarked) :: class 0

Lab note: sort COc1cccc(CN(CCSc2ccccc2)Cc2ccc(S(=O)(=O)NC(=O)c3ccc(C(c4c[nH]c5ccccc45)c4c[nH]c5ccccc45)cc3)cc2)c1 into the matching Amplification coefficient 5TA x 38SZ band.
class 2

Lab note: sort NS(=O)(=O)c1ccc(CN(CCSc2ccccc2)Cc2ccc(S(=O)(=O)NC(=O)c3ccc4oc(-c5ccccc5)cc4c3)cc2)cc1 into the matching Amplification coefficient 5TA x 38SZ band.
class 2

Lab note: sort O=C(NS(=O)(=O)c1ccc(CN(CCSc2ccccc2)Cc2c(F)cccc2Cl)cc1)c1ccccc1 into the matching Amplification coefficient 5TA x 38SZ band.
class 2

Lab note: sort O=C(NS(=O)(=O)c1ccc(CN(CCSc2ccccc2)Cc2c(F)cccc2Cl)cc1)c1ccc(-c2ccccn2)cc1 into the matching Amplification coefficient 5TA x 38SZ band.
class 2

Lab note: sort COc1cccc(CN(CCSc2ccccc2)Cc2ccc(S(=O)(=O)NC(=O)c3ccc(-c4ccccn4)cc3)cc2)c1 into the matching Amplification coefficient 5TA x 38SZ band.
class 0

Lab note: sort O=C(NS(=O)(=O)c1ccc(CNc2cccc([N+](=O)[O-])c2)cc1)c1ccc(CN2C(=O)C(c3ccc(F)cc3F)=C(c3ccc(F)cc3F)C2=O)cc1 into the matching Amplification coefficient 5TA x 38SZ band.
class 1
